Data provenance is ChEMBL document CHEMBL1154421.

# systemName: Human immunodeficiency virus type 1 reverse transcriptase (Human immunodeficiency virus 1, UniProt Q72547, K65R)
# assayProtocol: Inhibition of HIV1 reverse transcriptase p66/p51 K65R mutant expressed in Escherichia coli using calf thymus DNA substrate
pIC50: −log10 of the molar value.
Measured pIC50 values are reported for all entries that follow.

{"compound": "BP(=O)(CO[C@H](C)Cn1cnc2c(N)ncnc21)OP(=O)(O)OP(=O)(O)O (some centres undefined)", "pIC50": 4.74}
{"compound": "BP(=O)(COCCn1cnc2c(N)ncnc21)OP(=O)(O)OP(=O)(O)O (centres undefined)", "pIC50": 4.92}
{"compound": "C[C@H](Cn1cnc2c(N)ncnc21)OCP(=O)(O)OP(=O)(O)OP(=O)(O)O", "pIC50": 3.77}
{"compound": "Nc1ncnc2c1ncn2CCOCP(=O)(O)OP(=O)(O)OP(=O)(O)O [ADEFOVIR DIPHOSPHATE]", "pIC50": 4.28}
